src = PubChem BioAssay (NCI)

The entries below come with measured growth inhibition values attached.
- test description: NCI Yeast Anticancer Drug Screen. Data for the wt2 strain (AID 169);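 further: 0% = growth of vehicle-treated yeast cultures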
- assay context: S. cerevisiae wt2 strain growth inhibition; at 1.2 µM; stronger effect = higher value
Compounds without any hit were thinned out: in the full panel of roughly 79,000, 15% have a hit.
Numeric only. Scale: %

What value of growth inhibition has been reported for the following compound? CC(CN(C)C)C(=O)/C=C/c1ccc(Cl)c(Cl)c1 (configuration not stated)
2

***
Fill in: growth inhibition of COc1ccc2cc(C(C)C(=O)N3CCOC3=O)ccc2c1 (configuration not stated) is ___
-41

Would you kindly repeat that for O=C(NOC(=O)c1ccc([N+](=O)[O-])cc1)c1ccc(Cl)cc1 ?
-47

Another compound to look at: O=C(CN(c1ccccc1)c1ccccc1)n1nnc2ccccc21
-7

Do the same for Brc1ccc(B2Nc3ccccc3N2)cc1 please
-4

# repeat for Nc1ccc2cc(Br)ccc2c1Br
-1

Queued: O=C1C=C(NCCc2cc(Br)c(O)c(Br)c2)C(=O)c2ncccc21
13

Can you check CN1C(=O)C(CC(=O)O)NC1=S (configuration not stated) next?
-2

Field entry: CCCC/C=C1\CCC(CN2CCCC2)C1=O (configuration not stated)
-33

Next up: CC(C)(Br)C(=O)/C=C/c1ccccc1
0

Could you do the same for Fc1ccc(Nc2ccc3ccccc3c2)cc1 , please?
-1

Item: N#C/C(=C\NC(=S)Nc1ccc(S(N)(=O)=O)cc1)C(=O)c1ccc2ccccc2c1
-1
